FYI, the data here is from the DeepSol protein solubility set.

test: soluble on expression in E. coli; label from the status in PepcDB or PDB records
quantity: soluble on expression in E. coli

Use the examples below as a reference point.
1) MSLKLLFFDTETTGVKPGSICQLSYILVDTSTKPQKTIGKNIFFTVDEMEPEAERIHGFSLEKLYELSEGMYFEDLYADFINDFLEADFIIGHNVQFDIKFLKHELLGLGEFFEPNNVFCTMKYYKDICKILRPTGDYKNPKLEEVIKHLNITDSEISETANKYFQGSGNYHDARFDTAATYLTVINGIKKGLIPRNYFTKLLEAEGHHHHHH | soluble
2) MDRTTPWQQQPIRYSADLEKPSPREQADIEKIMAKLLKNNERAYDKYKHGLRDAHAKSHAILRGELIVNEGLPPELAQGLFAEPRTYPVIARLSSTSGVRRSDKTRGVRGLGLKVLGVQGEKILPDDSSTNQDFVMVTHEDFLFADAHAYAGLGMITASLLARLSDQALWLGSGLLDLVSKAGIKLPDNLMVFVAPNRPILGLEFFSSAPFRHGDHVAKYRFAPASENVKALSGQLLPRNPAPEQHRDMIAEFFADQTAEFDFSAQLCTDPVAMPIEDAGKNWDKSISPYVSVAKIVFGPQNPYSALRRAYGDDVLAFNSWRGLAEHRPLGSINRLKKTVYESSADYRHRVNRIDRHEPVDISELPDLEHHHHHH | soluble
3) MAPAPEVVSWAEAVEQDNAPHIQEGADGTRTETAFTEVDGVRWKVVTQFKVINKRVPKVVADRKKWVKFGSCKGEPAGPQVATTYVAEEVDMQFTRNRAGEQILDVQEDKQTAKTTSREHCRHCKGNDHWSTHCPYKVMYQLDEEADADKDTEKDRMAMGMRPDGRQIDRNRSDENTCRVTNLPQEMNEDELRDLFGKIGRVIRIFIARDKVTGLPKGFAFVTFESRDDAARAIAELNDIRMYHMVLKVEWTRPSN | not soluble
4) NKDMSFVIRGNFTYSKNKIDNWEQIEQKYAYQNFSGWPYGIQRGYIALGLFRDEADINNSPIQTFGNYEAGDIKYKDVNGDGRIDIDDQVPLSYDNYPRLMYGFGGEFRYKNLTFNILFKGIGKKDFFYTSEDSGFGYYPFLYGETGNVLSIVANSSNRWIPASYSGDPSTENPNARFPRLSYGKNSNNTQKSTFWKANGQYLRLQEISVGYNLKLKAFSKIGVSSIDLQLVGQDLYVWDKIGGLWDPEQTTKNGRAYPIPATYSLQMYINF | not soluble

// for each sequence in input: emit soluble on expression in E. coli
1. MGSDKIHHHHHHMPTIHLIDGEKGGVGKSLVARTMIQYCLDNNMPFVPVETDRSNPDVAGVYKGICQYAVFTEDERHADKADKIFEIAMNKTVIANLAAQSHRAVKGWIEKNHLIELGESQGVDFCKWFVSTGGYDSLNLFKQSVNSYGGKVPHILVKNLGLCDDWEHVNSDATIQEVVKKYNVKAIDFPKLAYKERNIIDQHRLTFADAREYKEFGIISKQRVVNFLKLAYASFETVGIWYEEVK
2. MTSACGFHLRGDYLLPDEVHEISLTSFDQYSSLTRDVQKQLRMNGIRQVAPTTVTPSLDLISESLNERTLSLYQNSRAAEKELTYNVSYSVLIPGHDLKTYTTTVNRNYLDNPLTALAKSVERDMIEEEMRAQAAEQILRQMARLKADDAPVETSDVITHDDETESKVTTKEVIKSMSTTAETTQLEHHHHHH
3. MGHHHHHHSHMELKQSLSTHLEAEKPLRRYGAVEETAWKTERLGRNQLDIISMAETTMMPEEIELEMAKIQRLREVLVRRESELRFMMDDIQLCKDIMDLKQELQNLVAIPEKEKTKLQKQREDELIQKIHKLVQKRDFLVDDAEVERLREQEEDKEMADFLRIKLKPLDKVTKSPASSRAEKKAEPPPSKPTVAKTGLALIKDCCGATQCNIM
4. MEYKDATHTTATQTVHYVNQDGDKVFDDDTSQTLNYERGVTIDEVTGEVISYGDWTPVDGDEFGSVTSPDKPGYAVDTKVVSGEKPEITNGKDGKVNDVEVTVTYTASNEDATLEHHHHHH

Completion:
not soluble
soluble
soluble
soluble

// for each sequence in input: emit soluble on expression in E. coli
1. AVPKIRIAVPSKGRISEPAIRLLENAGVGLKDTVNRKLFSKTQHPQIEVMFSRAADIPEFVADGAADLGITGYDLIVERGSDVEILEDLKYGRASLVLAAPEDSTIRGPEDIPRGAVIATEFPGITENYLREHGIDAEVVELTGSTEIAPFIGVADLITDLSSTGTTLRMNHLRVIDTILESSVKLIANRESYATKSGIIEELRTGIRGVIDAEGKRLVMLNIDRKNLDRVRALMPGMTGPTVSEVLSDNGVVAVHAVVDEKEVFNLINRLKAVGARDILVVPIERIIP
2. MAHHHHHHMIRKIIILMFTFFSNIHNEKIYHHKQRRKFLKGPLGYLNRNVIQKKHYNLYAKKFINYKEIQIQRINDYRKRSGVDKNNINYNLRDTYNYHETHLFVRNEVLPTLAKIENENLKEKEKNKEIFRNINDYNSNFTRQTFLQFLMDLYNIFLKIDDLFLENKTYFSILIYNGPMQLTNHLYDDIIYVSSVVENSDDVSPSEYCMEYISHLENLCEENKLSFLAHAYVFYKNFHLSKEHLLKSICKYLNIIKKLKSSTYVADVENFEVSQKCFLHLLFCLNKMSRKWSRWEKDNFLASLHNATNKMMILTKHFEKVKS
3. MTVEEYQQTVAQWLEVAKDPHFNKAYTELTYKPMREMVTYLQDHDFKVYIVSGGGVDFMRTWAPEVYGIPEEQIIGSALKYKYDYNNSNPTVTKLGEILTIDDKAGKVENIQHIIGKKPVLAIGNSDGDHAMMQWATSQPNSMAMIVHHTDEAREWKYDR

Completion:
["soluble", "not soluble", "not soluble"]

Prompt: I am curious: what soluble on expression in E. coli value has been reported for MGSDKIHHHHHHMYKVIIIDDEKAAIETLRRDLEVQTDLEIKGTAGNGAKGKKLIMDIHPDLLFLDIELPDIQGIRLLSEIREQVLWDMKVVFYTAYDKYLLQALRESAFDYLLKPYDIEELNLIIERYRKTMASARPLPSFASAVGTLMPGRDLFMISTVTGFRFLRLEEIGYFEYLKDKRLWQVELFNQTKLCLKKNTTAGDIIGYSDAFVQISQSAIININYLAMIKSKQCLLYPPFSDKEDLIISRGFLKELQERFCII ?
Completion: not soluble
